These measurements were taken from patent US20160060288A1.

Assay: physchem
Settings: oil or lipid, thermodynamic from solid, Solubility in medium-chain oil

| compound | solubility |
| --- | --- |
| CCCCCCCCCCCCCCCC(=O)OC1CCC2C3C(CCCCCCCCC[S+]([O-])CCCC(F)(F)C(F)(F)F)Cc4cc(O)ccc4C3CCC12C (stereo not shown) | > 10000 µg/mL |

###

Assay: Solubility experiments of fulvestrant and ester derivatives in different oils and solvents
Settings: soybean oil, oil or lipid, thermodynamic from solid, Solubility in soybean oil

| molecule | units | solubility |
| --- | --- | --- |
| CC12CCC3c4ccc(O)cc4CC(CCCCCCCCC[S+]([O-])CCCC(F)(F)C(F)(F)F)C3C1CCC2O (stereo not shown) [Fulvestrant] | µg/mL | 5000 |

###

Assay: Solubility experiments of fulvestrant and ester derivatives in different oils and solvents
Conditions: propylene glycol, organic solvent or mixture, thermodynamic from solid, Solubility in propylene glycol

| compound | solubility [mg/mL] |
| --- | --- |
| CC12CCC3c4ccc(O)cc4CC(CCCCCCCCC[S+]([O-])CCCC(F)(F)C(F)(F)F)C3C1CCC2O (stereo not shown) [Fulvestrant] | 10.2 |

###

Experiment: physchem
Conditions: organic solvent or mixture, thermodynamic from solid, Solubility in propylene glycol

| compound | solubility |
| --- | --- |
| CCCCCCCC/C=C/C(=O)OC1CCC2C3C(CCCCCCCCC[S+]([O-])CCCC(F)(F)C(F)(F)F)Cc4cc(O)ccc4C3CCC12C (stereo not shown) | 12200 µg/mL |
| CCCCCCCCCCCCCCCC(=O)OC1CCC2C3C(CCCCCCCCC[S+]([O-])CCCC(F)(F)C(F)(F)F)Cc4cc(O)ccc4C3CCC12C (stereo not shown) | 10200 µg/mL |
| CCCCCCCCCCC(=O)OC1CCC2C3C(CCCCCCCCC[S+]([O-])CCCC(F)(F)C(F)(F)F)Cc4cc(O)ccc4C3CCC12C (stereo not shown) | 2900 µg/mL |
| CC(CCC(C(=O)OC1CCC2C3C(CCCCCCCCC[S+]([O-])CCCC(F)(F)C(F)(F)F)Cc4cc(O)ccc4C3CCC12C)C(C)CC(C)(C)C)CC(C)(C)C (stereo not shown) | 7100 µg/mL |

###

Test: physchem
Settings: oil or lipid, thermodynamic from solid, Solubility in soybean oil

| molecule | units | result_operator | solubility |
| --- | --- | --- | --- |
| CC(CCC(C(=O)OC1CCC2C3C(CCCCCCCCC[S+]([O-])CCCC(F)(F)C(F)(F)F)Cc4cc(O)ccc4C3CCC12C)C(C)CC(C)(C)C)CC(C)(C)C (stereo not shown) [Compound IV] | mg/mL | = | 28 |
| CCCCCCCCCCCCCCCC(=O)OC1CCC2C3C(CCCCCCCCC[S+]([O-])CCCC(F)(F)C(F)(F)F)Cc4cc(O)ccc4C3CCC12C (stereo not shown) [Compound II] | mg/mL | > | 100 |
| CCCCCCCCCCC(=O)OC1CCC2C3C(CCCCCCCCC[S+]([O-])CCCC(F)(F)C(F)(F)F)Cc4cc(O)ccc4C3CCC12C (stereo not shown) [Compound I] | mg/mL | = | 255 |
| CCCCCCCC/C=C/C(=O)OC1CCC2C3C(CCCCCCCCC[S+]([O-])CCCC(F)(F)C(F)(F)F)Cc4cc(O)ccc4C3CCC12C (stereo not shown) [Compound V] | mg/mL | = | 122 |
